Reference for the values: ChEMBL document CHEMBL1141734

- Study target: Polyunsaturated fatty acid 5-lipoxygenase (Homo sapiens, UniProt P09917)
- Sequence (P09917 whole entry): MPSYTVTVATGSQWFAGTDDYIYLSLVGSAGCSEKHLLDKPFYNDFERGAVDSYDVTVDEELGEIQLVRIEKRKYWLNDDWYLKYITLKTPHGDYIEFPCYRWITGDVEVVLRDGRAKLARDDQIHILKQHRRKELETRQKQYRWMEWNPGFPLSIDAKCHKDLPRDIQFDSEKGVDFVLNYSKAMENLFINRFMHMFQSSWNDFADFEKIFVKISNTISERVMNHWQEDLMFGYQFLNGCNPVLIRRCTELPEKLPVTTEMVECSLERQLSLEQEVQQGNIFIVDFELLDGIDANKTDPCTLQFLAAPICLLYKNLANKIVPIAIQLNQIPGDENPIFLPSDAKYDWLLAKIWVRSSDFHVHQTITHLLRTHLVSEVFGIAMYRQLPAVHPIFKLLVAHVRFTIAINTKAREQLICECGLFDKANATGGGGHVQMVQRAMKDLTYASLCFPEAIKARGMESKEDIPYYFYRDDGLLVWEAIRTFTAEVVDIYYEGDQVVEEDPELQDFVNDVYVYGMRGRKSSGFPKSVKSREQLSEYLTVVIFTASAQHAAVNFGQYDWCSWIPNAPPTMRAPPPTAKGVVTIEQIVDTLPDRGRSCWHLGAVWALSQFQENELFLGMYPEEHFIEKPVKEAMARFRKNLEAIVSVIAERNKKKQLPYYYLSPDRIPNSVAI
Parameter: IC50 (µM)
# number only, unit µM dropped from output

See these solved cases before continuing.
- Molecule: "CC(C)=CCC/C(C)=C/CC1=CC(=O)C=C(C)C1=O"
  Study target: "Polyunsaturated fatty acid 5-lipoxygenase (Homo sapiens, UniProt P09917)"
  IC50 (µM): 0.2
- Molecule: "C=C1CCC[C@]2(C)Cc3occ(C)c3C[C@@H]12 [ATRACTYLON]"
  Study target: "Polyunsaturated fatty acid 5-lipoxygenase (Homo sapiens, UniProt P09917)"
  IC50 (µM): 25.1
- Molecule: "COc1ccc2ccc(=O)oc2c1CC=C(C)C [OSTHOLE]"
  Study target: "Polyunsaturated fatty acid 5-lipoxygenase (Homo sapiens, UniProt P09917)"
  IC50 (µM): 36.2

Exercise: Notebook entry, Polyunsaturated fatty acid 5-lipoxygenase (Homo sapiens, UniProt P09917) assay: IC50 of CC(C)=CCCC1(C)C=Cc2cc(O)cc(C)c2O1 (configuration not stated) [ATRACTYLOCHROMENE] = ?
Solution: 0.6

* * *

- Study target: UniProt:P09917
Parameter: IC50

See these solved cases before continuing.
- Compound: "C=C1CCC[C@]2(C)C=C3OC(=O)C(C)=C3C[C@@H]12 [ATRACTYLENOLIDE I]"
  IC50: "> 200 µM"
- Compound: "C=C1CCC[C@]2(C)C[C@@H]3OC(=O)C(C)=C3C[C@@H]12 [ATRACTYLENOLIDE II]"
  IC50: "> 200 µM"

# evaluate next
Exercise: Notebook entry, UniProt:P09917 assay: IC50 of C=C1CCC[C@]2(C)C[C@]3(O)OC(=O)C(C)=C3C[C@@H]12 [ATRACTYLENOLIDE III] = ?
Solution: > 200 µM
